Value source: patent US20030091584A1

The entries below are paired with their reported Kd.
Target: T1, RSV F glycoprotein (NUF4) (respiratory syncytial virus)
T1 chain 1: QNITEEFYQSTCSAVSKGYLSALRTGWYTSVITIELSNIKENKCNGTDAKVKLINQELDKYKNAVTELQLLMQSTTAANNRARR
T1 chain 2: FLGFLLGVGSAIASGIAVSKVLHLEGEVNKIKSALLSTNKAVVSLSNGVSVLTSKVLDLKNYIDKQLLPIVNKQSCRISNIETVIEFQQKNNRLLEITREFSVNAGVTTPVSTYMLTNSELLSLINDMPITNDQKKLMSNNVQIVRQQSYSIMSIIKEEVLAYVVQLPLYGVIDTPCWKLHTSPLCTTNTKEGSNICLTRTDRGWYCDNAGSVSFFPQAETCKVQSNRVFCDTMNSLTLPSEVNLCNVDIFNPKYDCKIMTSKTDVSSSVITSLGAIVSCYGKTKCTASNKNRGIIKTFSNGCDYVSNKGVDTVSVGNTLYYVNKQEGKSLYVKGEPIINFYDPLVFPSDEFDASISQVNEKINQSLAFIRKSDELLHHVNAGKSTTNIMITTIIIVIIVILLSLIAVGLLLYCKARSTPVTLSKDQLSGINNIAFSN
Assay: BIAcore, mAb vs NUF4 (1:1)
In your response, the unit should come after the numeric value.

binder	attribute measured	result
A1e9 (monoclonal antibody) (antibody, V domains shown, mAb with framework and constant regions of SYNAGIS; also called Ale9) VH: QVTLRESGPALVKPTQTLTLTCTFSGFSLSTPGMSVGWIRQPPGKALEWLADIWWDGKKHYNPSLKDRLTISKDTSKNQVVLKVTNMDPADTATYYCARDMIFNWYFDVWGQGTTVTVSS VL: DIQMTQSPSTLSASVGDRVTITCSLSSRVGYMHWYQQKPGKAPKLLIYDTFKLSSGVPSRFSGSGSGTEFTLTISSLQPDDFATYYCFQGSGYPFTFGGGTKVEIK	Kd	0.69 nM

Input: Which Kd is listed for A8c7 (monoclonal antibody) (antibody, V domains shown, mAb with framework and constant regions of SYNAGIS) VH: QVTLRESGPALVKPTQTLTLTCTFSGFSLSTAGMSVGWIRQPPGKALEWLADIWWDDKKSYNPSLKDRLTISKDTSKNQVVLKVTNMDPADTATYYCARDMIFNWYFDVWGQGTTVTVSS VL: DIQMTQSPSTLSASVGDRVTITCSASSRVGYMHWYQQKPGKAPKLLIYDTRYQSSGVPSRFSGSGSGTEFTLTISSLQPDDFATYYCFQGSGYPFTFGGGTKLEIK ?
Output: 0.65 nM
